assay.system: FGFR2 (Homo sapiens (Human))
experiment.notes: FGFR2 Biochemical Caliper Assay
IC50 for assorted compounds

> print(dat)
                                   compound  measurement.kind  assay.result
1  Cc1cccc(Oc2ccc(-c3c(-c4cnn(C5CCN(C(=O)/C=C/CN(C)C)CC5)c4)n(C)c4ncnc(N)c34)cc2)n1              IC50      < 100 nM
2  C=CC(=O)N1CCC(c2c(-c3ccc(Oc4ccccn4)cc3)c3c(N)ncnc3n2C)C1 (stereo not shown)              IC50      < 100 nM

Value of measured IC50 for the entry C=C(C)C(=O)Nc1ccc(-c2c(-c3ccc(Oc4cccc(C)n4)nc3)c3c(N)ncnc3n2C)cc1 : 250 to 1000 nM

Value of measured IC50 for the entry C=CC(=O)N1CC=C(c2c(-c3ccc(Oc4cc(C)ccn4)c(OC)c3)c3c(N)ncnc3n2C)CC1 : < 100 nM

###

assay.system: FGFR2 (Homo sapiens (Human), UniProt P21802)
Sequence (P21802 22-821): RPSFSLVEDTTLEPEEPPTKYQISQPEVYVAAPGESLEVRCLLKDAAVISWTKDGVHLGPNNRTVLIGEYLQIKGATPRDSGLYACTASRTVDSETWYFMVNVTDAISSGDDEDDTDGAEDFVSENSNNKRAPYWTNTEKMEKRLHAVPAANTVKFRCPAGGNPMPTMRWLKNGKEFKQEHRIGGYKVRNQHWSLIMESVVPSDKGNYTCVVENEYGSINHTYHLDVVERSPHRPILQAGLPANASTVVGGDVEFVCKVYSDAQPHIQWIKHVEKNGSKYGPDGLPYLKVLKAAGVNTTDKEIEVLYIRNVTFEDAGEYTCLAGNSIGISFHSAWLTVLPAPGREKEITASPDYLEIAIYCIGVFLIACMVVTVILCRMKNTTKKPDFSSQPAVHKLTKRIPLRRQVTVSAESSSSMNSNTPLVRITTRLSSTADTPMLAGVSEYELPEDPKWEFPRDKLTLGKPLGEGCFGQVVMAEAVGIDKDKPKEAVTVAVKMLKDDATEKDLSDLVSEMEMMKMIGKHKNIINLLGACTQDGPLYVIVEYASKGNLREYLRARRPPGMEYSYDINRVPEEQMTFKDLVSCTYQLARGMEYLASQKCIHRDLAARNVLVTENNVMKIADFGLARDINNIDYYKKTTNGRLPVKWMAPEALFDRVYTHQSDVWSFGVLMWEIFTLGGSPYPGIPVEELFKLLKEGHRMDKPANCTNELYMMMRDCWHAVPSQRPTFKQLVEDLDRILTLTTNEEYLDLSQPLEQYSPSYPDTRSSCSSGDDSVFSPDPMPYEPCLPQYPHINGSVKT
experiment.notes: FGFR2 Biochemical Caliper Assay
measurement.kind: IC50

> print(dat)
                                   molecule  assay.result
1  C=C(C)C(=O)Nc1ccc(-c2c(-c3ccc(C(=O)NCC(C)(C)COC)cc3)c3c(N)ncnc3n2C)cc1 [Example 409]      < 100 nM
2  C=CC(=O)N1CC=C(c2c(-c3ccc(Oc4cccc(C)n4)cc3)c3c(N)ncnc3n2C)CC1 [Example 656]      < 100 nM

Value of measured IC50 for the entry C=C(C)C(=O)Nc1ccc(-c2c(-c3ccc(C(=O)N(C)CC(C)C)cc3)c3c(N)ncnc3n2C)cc1 [Example 410] : < 100 nM

Value of measured IC50 for the entry C=C(C)C(=O)Nc1ccc(-c2c(-c3ccc(C(=O)N(C)CC4CCCO4)cc3)c3c(N)ncnc3n2C)cc1 (centres unmarked) [Example 269] : 1000 to 100000 nM

###

assay.system: FGFR2 (Homo sapiens (Human), UniProt P21802)
experiment.notes: FGFR2 Biochemical Caliper Assay
measurement.kind: IC50

Examples with their reported IC50 follow.
> print(dat)
                                   molecule  measurement.kind       assay.result
1  C=C(C)C(=O)Nc1ccc(-c2c(-c3ccc(S(=N)(=O)N4CCCC4)cc3)c3c(N)ncnc3n2C)cc1 (stereo not drawn)              IC50     250 to 1000 nM
2  C=C(C)C(=O)Nc1ccc(-c2c(-c3ccc(C(=O)NCC4CCC4)c(F)c3)c3c(N)ncnc3n2C)cc1              IC50           < 100 nM
3  C=C(C)C(=O)Nc1ccc(-c2c(-c3ccc(Oc4ncc(F)cn4)cc3)c3c(N)ncnc3n2C)c(F)c1              IC50           < 100 nM
4  C=C(C)C(=O)Nc1ccc(-c2c(-c3ccc(C(=O)N(C)Cc4cnn(C)c4)cc3)c3c(N)ncnc3n2C)cc1              IC50  1000 to 100000 nM
5  C=C(C)C(=O)Nc1ccc(-c2c(-c3ccc(C(=O)NCC4CCOC4)cc3)c3c(N)ncnc3n2C)cc1 (stereo not drawn)              IC50           < 100 nM

Value of measured IC50 for the entry C=C(C)C(=O)Nc1ccc(-c2c(-c3ccc(-c4nc(C)c(C)o4)cc3)c3c(N)ncnc3n2C)cc1 : 100 to 250 nM

Value of measured IC50 for the entry C=C(C)C(=O)Nc1ccc(-c2c(-c3cc(F)c(Oc4nccc(C)n4)c(F)c3)c3c(N)ncnc3n2C)cc1 : < 100 nM

Value of measured IC50 for the entry C=CC(=O)NC1CCC(c2c(-c3ccc(Oc4cccc(C)n4)cc3)c3c(N)ncnc3n2C)CC1 (stereo not drawn) : 100 to 250 nM

Value of measured IC50 for the entry C=C(C)C(=O)Nc1ccc(-c2c(-c3ccc(S(=O)(=O)NCC(C)(C)O)cc3)c3c(N)ncnc3n2C)cc1 : 1000 to 100000 nM

Value of measured IC50 for the entry Cc1cccc(Oc2ccc(-c3c(-c4cnn(C5CCN(C(=O)/C=C/CN6CCOCC6)CC5)c4)n(C)c4ncnc(N)c34)cc2)n1 : 100 to 250 nM

Value of measured IC50 for the entry C=CC(=O)N1CCC(c2c(-c3ccc(Oc4ccc(Cl)cn4)cc3)c3c(N)ncnc3n2C)C1 (stereo not drawn) : < 100 nM

Value of measured IC50 for the entry C=CC(=O)N1CCC(c2c(-c3ccc(Oc4ncccn4)cc3)c3c(N)ncnc3n2CC)C1 (stereo not drawn) : 100 to 250 nM

Value of measured IC50 for the entry C=C(C)C(=O)Nc1ccc(-c2c(-c3ccc(Oc4ccc(C)cn4)c(O)c3)c3c(N)ncnc3n2C)cc1 : 1000 to 100000 nM

Value of measured IC50 for the entry C=C(C)C(=O)Nc1ccc(-c2c(-c3ccc(C(=O)NCC(C)(C)OC)c(F)c3)c3c(N)ncnc3n2C)cc1 : < 100 nM

Value of measured IC50 for the entry C=CC(=O)N1CCC(c2c(-c3cnn(C4CCN(C)CC4)c3)c3c(N)ncnc3n2C)C1 (stereo not drawn) : 250 to 1000 nM

###

assay.system: FGFR2 (Homo sapiens (Human), UniProt P21802)
experiment.notes: Biochemical FGFR2 Caliper assay
IC50 for assorted compounds

> print(dat)
                                   compound  measurement.kind       assay.result
1  C=C(C)C(=O)Nc1ccc(-c2c(C3=CCC(S(=O)(=O)C4CCCC4)CC3)c3c(N)ncnc3n2C)cc1 (stereo not shown)              IC50     250 to 1000 nM
2  C=C(C)C(=O)Nc1ccc(-c2c(C3=CC[C@@H](C(=O)N4CCC[C@H]4C)CC3)c3c(N)ncnc3n2C)cc1              IC50      100 to 250 nM
3  C=C(C)C(=O)Nc1ccc(-c2c(C3=CC[C@H](C(=O)N4CCC[C@H]4COC)CC3)c3c(N)ncnc3n2C)cc1 (single isomer, unassigned)              IC50  1000 to 100000 nM

FGFR2 (Homo sapiens (Human), UniProt P21802) IC50 of C#Cc1cc(C)c(-c2c(-c3ccc(Oc4ncccn4)c(F)c3)c3c(N)ncnc3n2C)cn1 is < 100 nM

FGFR2 (Homo sapiens (Human), UniProt P21802) IC50 of C=C(C)C(=O)Nc1cc(-c2c(-c3ccc(C(=O)N4CCCC4)cc3)c3c(N)ncnc3n2C)n(C)n1 [Example 865] is 100 to 250 nM

FGFR2 (Homo sapiens (Human), UniProt P21802) IC50 of C=C(C)C(=O)Nc1ccc(-c2c(-c3cnc(-c4ccccc4)s3)c3c(N)ncnc3n2C)cc1 is 100 to 250 nM

FGFR2 (Homo sapiens (Human), UniProt P21802) IC50 of C=C(C)C(=O)Nc1ccc(-c2c(-c3ccc(-c4noc(C5CC5)n4)c([N+](=O)[O-])c3)c3c(N)ncnc3n2C)cc1 is 1000 to 100000 nM

###

IC50 for assorted compounds
assay.system: FGFR2 (Homo sapiens (Human))
experiment.notes: Biochemical FGFR2 Caliper assay

Examples with their reported IC50 follow.
> print(dat)
                                   compound                  assay.system  measurement.kind       assay.result
1  C#Cc1ncc2ccc(-c3c(-c4ccc(Oc5nccc(C)n5)c(F)c4)c4c(N)ncnc4n3C)cc2n1 [Example 1379]  FGFR2 (Homo sapiens (Human))              IC50      100 to 250 nM
2  C=C(C)C(=O)Nc1ccc(-c2c(-c3ccc4c(c3)CCOC4)c3c(N)ncnc3n2C)cc1 [Example 1292]  FGFR2 (Homo sapiens (Human))              IC50  1000 to 100000 nM
3  C=C(C)C(=O)Nc1ccc(-c2c(-c3ccc4nccn4c3)c3c(N)ncnc3n2C)cc1 [Example 1345]  FGFR2 (Homo sapiens (Human))              IC50  1000 to 100000 nM
4  C=C(C)C(=O)Nc1ccc(-c2c(-c3ccc(-c4noc(C5CC5)n4)cc3)c3c(N)ncnc3n2C)cn1 [Example 1362]  FGFR2 (Homo sapiens (Human))              IC50      100 to 250 nM
5  C=C(C)C(=O)Nc1ccc(-c2c(C3=CC[C@@H](C(=O)N4CCCC45COC5)CC3)c3c(N)ncnc3n2C)cc1 (single isomer, unassigned) [Example 914]  FGFR2 (Homo sapiens (Human))              IC50           < 100 nM

Value of measured IC50 for the entry Cn1c(-c2ccc(NC(=O)CCl)cc2)c(C2=CC[C@H](C(=O)N3CCCC3)CC2)c2c(N)ncnc21 (single isomer, unassigned) [Example 905] : 100 to 250 nM

Value of measured IC50 for the entry C=CC(=O)Nc1cccc(-c2c(-c3ccc(C(=O)NCC4(F)COC4)cc3)c3c(N)ncnc3n2C)c1 [Example 1030] : < 100 nM
